Where these numbers come from: patent US20230416228A1

Molecular target: human FOXO1 (constitutively active form Thr24Ala, Ser256Ala, Ser319Ala) (Homo sapiens, UniProt Q12778, S256A/S319A/T24A)
Sequence (Q12778 whole entry T24A/S256A/S319A): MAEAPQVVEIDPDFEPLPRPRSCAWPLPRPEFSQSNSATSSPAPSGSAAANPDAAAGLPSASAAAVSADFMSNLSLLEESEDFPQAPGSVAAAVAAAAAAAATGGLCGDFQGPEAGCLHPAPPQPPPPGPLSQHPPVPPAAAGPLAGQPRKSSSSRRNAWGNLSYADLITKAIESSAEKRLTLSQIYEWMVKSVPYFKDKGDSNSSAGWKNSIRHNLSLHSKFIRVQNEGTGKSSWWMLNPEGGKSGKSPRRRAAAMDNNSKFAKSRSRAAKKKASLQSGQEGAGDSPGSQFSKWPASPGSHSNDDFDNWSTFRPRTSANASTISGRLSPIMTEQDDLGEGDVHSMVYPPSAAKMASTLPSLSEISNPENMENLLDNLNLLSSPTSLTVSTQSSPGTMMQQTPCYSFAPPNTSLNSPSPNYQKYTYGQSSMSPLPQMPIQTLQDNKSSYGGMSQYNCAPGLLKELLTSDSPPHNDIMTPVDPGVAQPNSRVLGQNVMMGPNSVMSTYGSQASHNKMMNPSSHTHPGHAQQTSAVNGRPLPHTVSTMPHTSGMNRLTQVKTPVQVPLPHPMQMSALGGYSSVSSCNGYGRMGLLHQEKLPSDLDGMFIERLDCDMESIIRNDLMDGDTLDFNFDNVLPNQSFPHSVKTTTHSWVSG
Assay: FOXO1 inhibitor activity assay: cell-based transcriptional (luciferase) reporter assay in HEK293 cells
Conditions: HEK293 cells transfected with insulin response element firefly luciferase reporter, FOXO1 and Renilla luciferase; 10-point dose response 50 μM to 2.5 nM; 24 hours
Measured IC50 by item

>  <COMPOUND>
COc1cc(F)c2[nH]c(-c3cc(NC(=O)c4ccc(N5CCC(OC)CC5)nc4)n[nH]3)nc2c1

>  <VALUE_REPORTED>
> 1000 nM

$$$$
>  <COMPOUND>
O=C(Nc1cc(-c2nc3ccccc3[nH]2)[nH]n1)c1ccc(N2CCC(C(=O)O)CC2)nc1

>  <VALUE_REPORTED>
> 1000 nM

$$$$
>  <COMPOUND>
Cc1nc(N2CCN(C3COC3)CC2)ccc1C(=O)Nc1cc(-c2nc3ccccc3[nH]2)n(C)n1

>  <VALUE_REPORTED>
300 to 1000 nM

$$$$

Attention now shifts to the item below.
Reported IC50 ( CN1CCN(c2ccc(C(=O)Nc3cc(-c4nc5ccccc5[nH]4)n(C)n3)cn2)CC1CO (stereo not drawn) ) = 100 to 300 nM

====

Target: human FOXO1 (constitutively active form Thr24Ala, Ser256Ala, Ser319Ala) (Homo sapiens, UniProt Q12778, S256A/S319A/T24A)
Assay: FOXO1 inhibitor activity assay: cell-based transcriptional (luciferase) reporter assay in HEK293 cells
Conditions: HEK293 cells transfected with insulin response element firefly luciferase reporter, FOXO1 and Renilla luciferase; 10-point dose response 50 μM to 2.5 nM; 24 hours
pIC50: −log10 of the molar value.
PROPERTY_NAME: pIC50

>  <MOLECULAR_STRING>
COc1ccc(Nc2nccc(-c3nc4ccccc4[nH]3)n2)cc1Cl

>  <VALUE_REPORTED>
< 6.00

$$$$
>  <MOLECULAR_STRING>
COCCN1CCN(c2ccc(C(=O)Nc3cc(-c4nc5ccccc5[nH]4)n(CCOC)n3)cn2)CC1

>  <VALUE_REPORTED>
6.00 to 6.52

$$$$
>  <MOLECULAR_STRING>
O=C(Nc1ccccc1)Nc1cc(-c2nc3ccccc3[nH]2)[nH]n1

>  <VALUE_REPORTED>
< 6.00

$$$$
>  <MOLECULAR_STRING>
Cn1nc(NC(=O)c2ccc(N3CCOCC3)nc2)cc1-c1nc2cccc(F)c2[nH]1

>  <VALUE_REPORTED>
6.52 to 7.00

$$$$
>  <MOLECULAR_STRING>
COc1cc(C(=O)Nc2cc(-c3nc4ccccc4[nH]3)[nH]n2)ccc1OCCO

>  <VALUE_REPORTED>
6.00 to 6.52

$$$$
>  <MOLECULAR_STRING>
Cc1ccc2[nH]c(-c3cc(NC(=O)c4ccc(N5CCOCC5)nc4)n[nH]3)nc2c1

>  <VALUE_REPORTED>
6.52 to 7.00

$$$$
>  <MOLECULAR_STRING>
Cn1nc(NC(=O)c2ccc(N3CCC4(CCCO4)CC3)nc2)cc1-c1nc2ccccc2[nH]1

>  <VALUE_REPORTED>
6.52 to 7.00

$$$$
>  <MOLECULAR_STRING>
O=C(Nc1cc(-c2nc3ccccc3[nH]2)[nH]n1)c1ccc(N2CC[C@H](O)C2)cc1

>  <VALUE_REPORTED>
> 7.00

$$$$

Reported pIC50 ( Cn1nc(NC(=O)c2ccc(N3C[C@H]4COC[C@H]4C3)nc2)cc1-c1nc2ccccc2[nH]1 ) = > 7.00

Reported pIC50 ( COc1cc(F)c2[nH]c(-c3cc(NC(=O)c4ccc(N5CC(OC)C5)nc4)nn3C)nc2c1 ) = 6.00 to 6.52

Reported pIC50 ( O=C(NCc1ccccc1)Nc1cc(-c2nc3ccccc3[nH]2)[nH]n1 ) = < 6.00

Reported pIC50 ( O=C(Nc1cc(-c2nc3cc(F)ccc3[nH]2)[nH]n1)c1ccc(N2CCC(O)CC2)nc1 ) = 6.52 to 7.00

Reported pIC50 ( COCCOc1ccc(C(=O)Nc2cc(-c3nc4ccccc4[nH]3)[nH]n2)cc1C(F)(F)F ) = > 7.00

Reported pIC50 ( Cn1nc(NC(=O)c2ccc(OCCO)c(Cl)c2)cc1-c1nc2cc(F)ccc2[nH]1 ) = > 7.00

Reported pIC50 ( O=C(Nc1cc(-c2nc3ccccc3[nH]2)[nH]n1)c1ccc(OCCN2CCOCC2)c(Cl)c1 ) = 6.52 to 7.00

====

Target: human FOXO1 (constitutively active form Thr24Ala, Ser256Ala, Ser319Ala) (Homo sapiens, UniProt Q12778, S256A/S319A/T24A)
Assay: FOXO1 inhibitor activity assay: cell-based transcriptional (luciferase) reporter assay in HEK293 cells
Settings: HEK293 cells transfected with insulin response element firefly luciferase reporter, FOXO1 and Renilla luciferase; 10-point dose response 50 μM to 2.5 nM; 24 hours
pIC50: −log10 of the molar value.
Measured pIC50 by item

>  <COMPOUND>
C[C@@H]1CN(c2ccc(C(=O)Nc3cc(-c4nc5ccccc5[nH]4)n(C)n3)cn2)CCN1

>  <VALUE_REPORTED>
> 7.00

$$$$
>  <COMPOUND>
CN1CCN(c2ccc(C(=O)Nc3cc(-c4nc5ccccc5[nH]4)[nH]n3)nc2)CC1

>  <VALUE_REPORTED>
< 6.00

$$$$
>  <COMPOUND>
C[C@H](CO)Nc1ccc(C(=O)Nc2cc(-c3nc4ccccc4[nH]3)[nH]n2)cn1

>  <VALUE_REPORTED>
< 6.00

$$$$

Reported pIC50 ( COC1CCN(c2ccc(C(=O)Nc3cc(-c4nc5cc(F)ccc5[nH]4)n(C)n3)cn2)CC1 ) = 6.52 to 7.00

====

Target: human FOXO1 (constitutively active form Thr24Ala, Ser256Ala, Ser319Ala) (Homo sapiens, UniProt Q12778, S256A/S319A/T24A)
Experiment: FOXO1 inhibitor activity assay: cell-based transcriptional (luciferase) reporter assay in HEK293 cells
Details: HEK293 cells transfected with insulin response element firefly luciferase reporter, FOXO1 and Renilla luciferase; 10-point dose response 50 μM to 2.5 nM; 24 hours
PROPERTY_NAME: IC50

Consider the worked cases shown below.
>  <COMPOUND>
COc1ccn2cc(-c3cc(NC(=O)c4ccc(OC)c(Cl)c4)n[nH]3)nc2c1

>  <IC50>
> 1000 nM

$$$$
>  <COMPOUND>
Cn1nc(NC(=O)c2ccc(OCCO)c(C(F)(F)F)c2)cc1-c1nc2ccccc2[nH]1

>  <IC50>
< 100 nM

$$$$
>  <COMPOUND>
O=C(Nc1cc(-c2nc3cc(Br)ccc3[nH]2)[nH]n1)c1ccc(N2CCC(O)CC2)nc1

>  <IC50>
> 1000 nM

$$$$

Reported IC50 ( COc1ccc(C(=O)Nc2cc(-c3nc4cccc(F)c4[nH]3)n(C)n2)cc1Cl ) = 100 to 300 nM

====

Measured IC50 by item
Molecular target: human FOXO1 (constitutively active form Thr24Ala, Ser256Ala, Ser319Ala) (Homo sapiens, UniProt Q12778, S256A/S319A/T24A)
Experiment: FOXO1 inhibitor activity assay: cell-based transcriptional (luciferase) reporter assay in HEK293 cells
Conditions: HEK293 cells transfected with insulin response element firefly luciferase reporter, FOXO1 and Renilla luciferase; 10-point dose response 50 μM to 2.5 nM; 24 hours
Description: The inhibitory activities of compounds on FOXO1 were determined by a cell-based transcriptional reporter assay. […] Luciferase activities in each well were measured using Dual-Glog Luciferase Assay System (Promega) according to manufacturer's protocol and an Envision plate reader suitable for luminescence detection. […] The ratio in each well receiving compound treatment was normalized and expressed as a percentage. […]

>  <COMPOUND>
CN1CCN(c2ccc(C(=O)Nc3cc(-c4nc5ccccc5[nH]4)n(CCO)n3)cc2)CC1

>  <VALUE_REPORTED>
300 to 1000 nM

$$$$
>  <COMPOUND>
COc1cc(F)c2[nH]c(-c3cc(NC(=O)c4ccc(N5CCC(OC)CC5)nc4)nn3C)nc2c1

>  <VALUE_REPORTED>
< 100 nM

$$$$
>  <COMPOUND>
Cn1nc(NC(=O)c2ccc(OCCO)c(Cl)c2)cc1-c1nc2cccc(F)c2[nH]1

>  <VALUE_REPORTED>
< 100 nM

$$$$
>  <COMPOUND>
COc1cc(F)c2[nH]c(-c3cc(NC(=O)c4ccc(N5CCOC(CO)C5)nc4)n[nH]3)nc2c1 (centres unmarked)

>  <VALUE_REPORTED>
> 1000 nM

$$$$

Attention now shifts to the item below.
Reported IC50 ( COCCn1nc(NC(=O)c2ccc(N3CCN(C)CC3)nc2)cc1-c1nc2ccccc2[nH]1 ) = 300 to 1000 nM
